Attribution: patent US20210246166A1

Recorded human MASP2 IC50 values for a group of binders are listed next.
- experimentalTarget: Recombinant human MASP2 enzyme (fragment corresponding to amino acids 297-686, C-terminal His Tag) (human, UniProt O00187 297-686)
- Sequence (O00187 other isoform, or with tags, fused parts or gaps limits assumed): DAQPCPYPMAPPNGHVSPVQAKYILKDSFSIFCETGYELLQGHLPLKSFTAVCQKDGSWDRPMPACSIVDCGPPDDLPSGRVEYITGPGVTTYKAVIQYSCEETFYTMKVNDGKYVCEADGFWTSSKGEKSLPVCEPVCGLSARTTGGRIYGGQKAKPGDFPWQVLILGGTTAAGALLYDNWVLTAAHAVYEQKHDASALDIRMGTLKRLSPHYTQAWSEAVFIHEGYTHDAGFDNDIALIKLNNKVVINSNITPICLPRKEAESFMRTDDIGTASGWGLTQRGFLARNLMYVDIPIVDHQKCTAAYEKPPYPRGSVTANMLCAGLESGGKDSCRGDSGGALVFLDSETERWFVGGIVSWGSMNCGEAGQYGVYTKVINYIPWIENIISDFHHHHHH
- assayText: cell-based or functional assay
Bridge positions count the residues as written; N and C are the ends. Square brackets hold non-standard residues; d marks the D form. Ends that are not written are not given here. Oic = O=C(O)[C@@H]1C[C@@H]2CCCC[C@@H]2N1; NMeC = CN[C@@H](CS)C(=O)O; Sar = CNCC(=O)O
Dear colleague, please return just the value in µM, with no unit written.

[Sar]ICTRSLPPICIPD-OH (disulfide 3-11; N-terminus assumed; SMILES CC[C@H](C)[C@H](NC(=O)CNC)C(=O)N[C@H]1CSSC[C@@H](C(=O)N[C@H](C(=O)N2CCC[C@H]2C(=O)N[C@@H](CC(=O)O)C(=O)O)[C@@H](C)CC)NC(=O)[C@H]([C@@H](C)CC)NC(=O)[C@@H]2CCCN2C(=O)[C@@H]2CCCN2C(=O)[C@H](CC(C)C)NC(=O)[C@H](CO)NC(=O)[C@H](CCCNC(=N)N)NC(=O)[C@H]([C@@H](C)O)NC1=O) [((N-Me)G)-IC+TRSLPPIC+IPD-OH]
6.5

Note: attention shifts to another entry.
Suppose we examine the binder AICSRSLP[Oic]I[NMeC]IPD-NH2 (disulfide 3-11; N-terminus assumed; SMILES CC[C@H](C)[C@H](NC(=O)[C@H](C)N)C(=O)N[C@H]1CSSC[C@@H](C(=O)N[C@H](C(=O)N2CCC[C@H]2C(=O)N[C@@H](CC(=O)O)C(N)=O)[C@@H](C)CC)N(C)C(=O)[C@H]([C@@H](C)CC)NC(=O)[C@@H]2C[C@@H]3CCCC[C@@H]3N2C(=O)[C@@H]2CCCN2C(=O)[C@H](CC(C)C)NC(=O)[C@H](CO)NC(=O)[C@H](CCCNC(=N)N)NC(=O)[C@H](CO)NC1=O) [AIC+SRSLP-(Oic)-I-((N-Me)C)+IPD-NH2] ; what human MASP2 IC50 value has been reported?
0.245
